// data source = ChEMBL document CHEMBL3988442

Species on record: Homo sapiens
Assay: To identify inhibition of the IFN signalling (Jak-Stat) pathway via expression of an eGFP reporter gene under the control of an IFN-stimulated response element (ISRE) containing MxA promoter.
Assay type: functional
Set-up: scale not given: direction of the effect not stated beside the values
Settings: 30 µM
Quantity measured: Percent Effect (%)
Kindly answer with a numeric value in %, unit omitted.

*Q* Which Percent Effect value is on record for `Cn1cnc2c(N3CCCC3)nc(C3CCNCC3)cc21` ?
*A* 1.97

*Q* Now try `O=C(c1ccno1)N1CC[C@@H]2O[C@@H](COCCN3CCCC3)CC[C@@H]21` .
*A* -0.519

*Q* Now try Cc1ccc(C)c(C(NC(=O)C2CC2)c2cccnc2)c1 (stereo not given) .
*A* 6.26

*Q* Now try `CC(C)(C(=O)NCC(N)=O)c1ccccc1F` .
*A* -3.33

*Q* Now try COCCCN1CCCN(C(C)C(=O)Nc2ccnn2C(C)C)CC1 (stereo not given) .
*A* -3.67

*Q* Now try `Cn1ccc(C(=O)N2CCC[C@]3(C[C@@H](OCc4ccccn4)CO3)C2)n1` .
*A* 2.73

*Q* Now try CN(Cc1nnc(C2CC2)n1C)C1CCN(CCc2cccs2)C1 (stereo not given) .
*A* -8.16

*Q* Now try COc1cccc(CCNC(=O)CN2CCN(C)CC2C)c1 (stereo not given) .
*A* 18.7

*Q* Now try CN(Cc1ncc[nH]1)CC(c1cccs1)N1CCOCC1 (stereo not given) .
*A* 17.4

*Q* Now try CCn1cc(CN2CCCC(CO)(CCc3ccccc3)C2)c(C)n1 (stereo not given) .
*A* -7.2

*Q* Now try `CC(C)(O)CN1CCN(C(=O)c2sccc2C2CC2)CC1` .
*A* 1.7

*Q* Now try `O=C(c1nc(COc2ccc3c(c2)OCO3)no1)N1CCCC1` .
*A* 3.63

*Q* Now try CCc1nnsc1C(=O)N1CCOC(c2nc(C)n[nH]2)C1 (stereo not given) .
*A* -0.829

*Q* Now try O=C1NCCN1C1CCCN(Cc2coc(-c3ccc(F)cc3)n2)C1 (stereo not given) .
*A* 57.5

*Q* Now try `O=c1ccc(-c2cccs2)nn1CN1CCCCCC1` .
*A* -1.68

* * *

Provide the recorded Percent Effect for the entries that follow.
Biological target: Sialic acid-binding Ig-like lectin 9 (Homo sapiens)
Test: Hs-Siglec9 ALPHAscreen SOP 20170721
Set-up: scale not given: direction of the effect not stated beside the values
Details: 10 µM

*Q* Which Percent Effect value is on record for NC(=O)C1(c2cnccn2)CCCN1Cc1cc2ccccc2o1 (centres undefined) ?
*A* 3.94%

*Q* Now try `COc1cccc(CC(=O)N2CCc3ncnc(NC(C)C)c3CC2)c1` .
*A* -4.76%

*Q* Now try CC(NC(=O)Cn1cccn1)c1ccc2c(c1)OCCCO2 (centres undefined) .
*A* 1.54%

*Q* Now try COCC1c2nnn(CC3CC3)c2CCN1C(=O)Cc1cccs1 (centres undefined) .
*A* 6.62%

* * *

Target: Arginase-2, mitochondrial (Homo sapiens) (UniProt P78540)
Sequence (P78540 whole entry): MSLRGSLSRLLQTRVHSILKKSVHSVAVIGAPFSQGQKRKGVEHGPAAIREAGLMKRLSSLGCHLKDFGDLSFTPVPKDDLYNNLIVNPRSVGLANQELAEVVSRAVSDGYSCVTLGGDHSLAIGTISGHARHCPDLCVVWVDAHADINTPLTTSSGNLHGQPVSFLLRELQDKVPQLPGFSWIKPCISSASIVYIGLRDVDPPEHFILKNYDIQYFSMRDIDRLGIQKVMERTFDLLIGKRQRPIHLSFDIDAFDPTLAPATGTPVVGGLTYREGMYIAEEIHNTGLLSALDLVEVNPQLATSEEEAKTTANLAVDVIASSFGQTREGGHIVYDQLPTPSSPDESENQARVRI
Assay: in vitro enzyme assay to detect the production of urea directly proportional to the activity of Arginase II; further: in the data most compounds retested in dose-response had high values
Assay type: functional
Set-up: scale not given: direction of the effect not stated beside the values
Conditions: 33.3 µM
Quantity measured: Percent Effect
In your response, the unit should come after the numeric value.

*Q* Which Percent Effect value is on record for CCn1c(C(=O)N2CCN(CC(C)O)CC2)cc2ccccc21 (configuration not stated) ?
*A* -1.78%

*Q* Now try CC(=O)NCc1ccc(C(=O)N2CCCC2c2cnn(C)c2)o1 (configuration not stated) .
*A* 3.24%

*Q* Now try CC(NC(=O)N1CCC(n2cncn2)CC1)c1ccc(F)cc1F (configuration not stated) .
*A* -1.14%

*Q* Now try Cc1nc(CN2CCCC(N(C)Cc3cscn3)C2)no1 (configuration not stated) .
*A* -6.11%

*Q* Now try O=C(c1csc(Br)c1)N1CCCC(n2ccnc2)C1 (configuration not stated) .
*A* -5.38%

*Q* Now try CC1c2ncc(COc3cccnc3)n2CCN1C(=O)C1=CCCC1 (configuration not stated) .
*A* -1.58%

*Q* Now try `NC(=O)Cc1ccc(NC(=O)C2CCOCC2)cc1` .
*A* 2.03%

*Q* Now try `O=C(NCc1csc(Br)c1)c1ccc(=O)[nH]n1` .
*A* 4.95%

*Q* Now try `N#Cc1ccc(CN2CCC(c3ccnn3CCO)CC2)cc1` .
*A* -1.8%

*Q* Now try CN(Cc1ccccc1)C1COC2(CCN(Cc3nccs3)CC2)C1 (configuration not stated) .
*A* -51.1%

*Q* Now try CCC(CNC(=O)Nc1cnn(CC)c1)N1CCCC1 (configuration not stated) .
*A* 3.04%

*Q* Now try `Cn1cc(NS(=O)(=O)c2ccc(OC(F)(F)F)cc2)ccc1=O` .
*A* -1.9%

*Q* Now try `Cc1occc1C(=O)N1CCC2(CCC(=O)N(CC(N)=O)C2)CC1` .
*A* 2.21%

*Q* Now try `Cc1ccc(S(=O)(=O)N2C[C@H]3C[C@H](NC(=O)c4ccn(C)n4)[C@H]3C2)cc1` .
*A* -3.48%

*Q* Now try COCc1cccc(NC(C)C(=O)N(C)Cc2cccc(F)c2)c1 (configuration not stated) .
*A* -0.744%

*Q* Now try `N#Cc1c(F)cccc1N1CCC(NS(=O)(=O)c2cccs2)CC1` .
*A* -0.455%

*Q* Now try `CCc1nc(NCCCOC)c2c(n1)c(C)nn2C` .
*A* -0.176%

*Q* Now try `CCn1cc(N2Cc3nc(N4CCN(C)CC4)ncc3C2=O)cn1` .
*A* -13.2%

*Q* Now try CC1CCN(C(CNC(=O)CCn2cccn2)c2cccs2)CC1 (configuration not stated) .
*A* 8.85%

*Q* Now try O=C(NCC1CC1)C1CN(C(=O)c2cccc(Cl)c2)CC12CCOCC2 (configuration not stated) .
*A* 5.81%

*Q* Now try `O=C(CN1CC(n2cccn2)C1)NCCc1c[nH]c2ccccc12` .
*A* -0.924%

*Q* Now try `O=C(CCCn1cncn1)NC1(c2ccccc2)CCC1` .
*A* -11%
